- target system: PI3Kδ (Homo sapiens)
- Construct: made in house
- experiment notes: TR-FRET enzymatic activity assay, PI3Kδ
- Format: biochemical
- measurement context: recombinant heterodimeric PI3Kδ 25-50 pM, 2× Km ATP, 30 minutes at 25°C
outcome measure: IC50 (nM)
One number for each entry, in nM.

CC[C@H](Nc1nc(N)nc(C)c1C#N)c1nc2cccc(Cl)c2c(=O)n1N1CCNCC1    1
C[C@H](Nc1nc(N)nc(N)c1C#N)c1nc2cccc(Cl)c2c(=O)n1[C@@H]1CCCNC1 (stereo in doubt)    830
CC[C@H](Nc1nc(N)nc(C)c1C#N)c1nc2cccc(Cl)c2c(=O)n1N1CCN(Cc2ccc(C(F)(F)F)cc2)CC1    50
CC(C)C[C@H](Nc1nc(N)nc(N)c1C#N)c1nc2cccc(Cl)c2c(=O)n1N1CCNCC1    15
C[C@H](NC(=O)c1nc(Cl)cnc1N)c1nc2cccc(Cl)c2c(=O)n1N1CCNCC1    150

// for each compound in input: emit IC50
1. C[C@H](Nc1ncnc(N)c1C#N)c1nc2cccc(Cl)c2c(=O)n1N1CCC(N)CC1
2. N#Cc1c(N)nc(N)nc1N1CCC[C@@H]1c1nc2cccc(F)c2c(=O)n1N1CCN(Cc2ccccc2)CC1 (stereo in doubt)

## Result
6
390

* * *

Please provide measured IC50 for the entries that follow.
- target system: PI3Kδ (Homo sapiens, UniProt O00329)
- Construct: made in house
- Sequence (O00329 whole entry): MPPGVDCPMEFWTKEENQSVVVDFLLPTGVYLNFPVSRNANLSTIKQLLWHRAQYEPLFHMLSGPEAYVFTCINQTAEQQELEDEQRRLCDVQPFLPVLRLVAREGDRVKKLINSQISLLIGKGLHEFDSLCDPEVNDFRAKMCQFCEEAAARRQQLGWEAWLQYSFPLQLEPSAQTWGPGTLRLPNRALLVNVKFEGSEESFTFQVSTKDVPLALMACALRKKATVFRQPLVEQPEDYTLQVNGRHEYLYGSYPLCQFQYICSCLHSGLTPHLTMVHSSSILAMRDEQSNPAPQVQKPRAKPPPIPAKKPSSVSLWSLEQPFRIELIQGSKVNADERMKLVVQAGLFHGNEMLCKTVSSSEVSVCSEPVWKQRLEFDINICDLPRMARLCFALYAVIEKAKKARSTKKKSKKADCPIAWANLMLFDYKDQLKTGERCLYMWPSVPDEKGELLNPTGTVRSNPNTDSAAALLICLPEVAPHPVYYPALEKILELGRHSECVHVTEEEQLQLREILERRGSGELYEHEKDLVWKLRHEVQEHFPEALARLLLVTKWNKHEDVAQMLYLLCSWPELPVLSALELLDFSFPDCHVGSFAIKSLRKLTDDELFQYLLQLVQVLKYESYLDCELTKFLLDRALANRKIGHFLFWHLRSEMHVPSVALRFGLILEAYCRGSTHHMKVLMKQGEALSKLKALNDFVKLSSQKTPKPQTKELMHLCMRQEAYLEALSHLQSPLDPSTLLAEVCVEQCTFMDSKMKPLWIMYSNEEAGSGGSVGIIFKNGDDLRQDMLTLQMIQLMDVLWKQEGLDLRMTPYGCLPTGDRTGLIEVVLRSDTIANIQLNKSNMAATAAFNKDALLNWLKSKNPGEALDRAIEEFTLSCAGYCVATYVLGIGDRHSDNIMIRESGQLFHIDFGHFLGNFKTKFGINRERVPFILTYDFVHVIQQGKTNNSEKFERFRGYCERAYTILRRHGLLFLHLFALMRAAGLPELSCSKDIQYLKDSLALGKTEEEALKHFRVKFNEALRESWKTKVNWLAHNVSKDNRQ
- Sequence (P27986 whole entry partner): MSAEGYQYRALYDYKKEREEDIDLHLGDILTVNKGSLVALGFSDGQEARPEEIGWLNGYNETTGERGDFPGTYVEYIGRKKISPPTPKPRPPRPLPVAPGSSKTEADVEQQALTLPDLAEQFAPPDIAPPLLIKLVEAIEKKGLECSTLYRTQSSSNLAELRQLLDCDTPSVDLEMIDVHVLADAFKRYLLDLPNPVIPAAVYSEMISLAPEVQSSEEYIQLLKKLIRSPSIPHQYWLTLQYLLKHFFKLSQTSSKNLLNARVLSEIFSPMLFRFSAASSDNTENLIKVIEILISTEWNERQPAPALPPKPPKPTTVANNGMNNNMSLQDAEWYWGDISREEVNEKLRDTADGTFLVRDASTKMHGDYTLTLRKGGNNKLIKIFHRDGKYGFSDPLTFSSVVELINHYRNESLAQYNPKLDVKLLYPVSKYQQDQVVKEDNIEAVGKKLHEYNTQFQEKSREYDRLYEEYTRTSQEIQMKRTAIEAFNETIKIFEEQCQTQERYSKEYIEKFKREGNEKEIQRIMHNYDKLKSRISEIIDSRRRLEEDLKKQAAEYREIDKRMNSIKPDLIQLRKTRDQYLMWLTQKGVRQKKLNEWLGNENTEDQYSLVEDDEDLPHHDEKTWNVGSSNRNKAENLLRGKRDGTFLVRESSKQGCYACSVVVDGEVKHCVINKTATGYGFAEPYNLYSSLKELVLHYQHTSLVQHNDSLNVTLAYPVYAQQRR
- experiment notes: TR-FRET enzymatic activity assay, PI3Kδ
- Format: biochemical
- measurement context: recombinant heterodimeric PI3Kδ 25-50 pM, 2× Km ATP, 30 minutes at 25°C
Answers are plain numbers, in nM.

Guide cases for IC50, answers given:
C[C@H](Nc1ncnn2ccnc12)c1nc2cccc(Cl)c2c(=O)n1C1CCCNCC1 (some centres unmarked) [Compound 82]    22
CC(C)C[C@H](Nc1ncnc(N)c1C#N)c1nc2cccc(Cl)c2c(=O)n1N1CCNCC1 [Compound 74]    32
Cc1nc(N)nc(N[C@@H](C)c2nc3c(F)ccc(Cl)c3c(=O)n2N2CCN(Cc3ccccc3)CC2)c1C#N [Compound 118]    17

# map each compound to its IC50
1. CC[C@H](Nc1nc(N)nc(C)c1C#N)c1nc2cccc(Cl)c2c(=O)n1C1CCNCC1 [Compound 23]
2. N#Cc1c(N)nc(N)nc1N[C@H](c1nc2cccc(Cl)c2c(=O)n1N1CCOCC1)C1CC1 [Compound 121]
3. CC[C@H](Nc1ncnc2scnc12)c1nc2cccc(Cl)c2c(=O)n1N1CCNCC1 [Compound 80]
4. O=c1c2c(Cl)cccc2nc([C@@H]2CCCN2c2ncnn3ccnc23)n1N1CCNCC1 [Compound 133]

## Result
[5, 2, 4, 75]

## Task Name the recorded IC50 of the compound listed here: C[C@H](Nc1ncnc(N)c1C#N)c1nc2cccc(Cl)c2c(=O)n1C1CCN(CC(F)F)CC1 [Compound 105]
## Result 9

* * *

- target system: PI3Kδ (Homo sapiens)
- Construct: made in house
- experiment notes: TR-FRET enzymatic activity assay, PI3Kδ
- Assay type: biochemical
- measurement context: recombinant heterodimeric PI3Kδ 25-50 pM, 2× Km ATP, 30 minutes at 25°C
outcome measure: IC50 (nM)
Answers are plain numbers, in nM.

Solved cases below.
C[C@H](Nc1nc(N)nc(N)c1C#N)c1nc2c(F)ccc(Cl)c2c(=O)n1N1CCN(Cc2ccccc2)CC1    15
C[C@H](Nc1nc(N)nc(Cl)c1C#N)c1nc2cccc(Cl)c2c(=O)n1N1CCN(CC(F)(F)F)CC1    41
N#Cc1c(N)ncnc1N[C@H](c1nc2cccc(Cl)c2c(=O)n1N1CCNCC1)C1CC1    2
C[C@H](Nc1nc(N)nc(Cl)c1C#N)c1nc2cccc(Cl)c2c(=O)n1C1CCNCC1    14
Cc1cccc2nc([C@H](C)Nc3ncnc(N)c3C#N)n(C3CCNCC3)c(=O)c12    5

Provide IC50 values for the following items, in order.
1. CC[C@H](Nc1nc(N)nc(C)c1C#N)c1nc2cccc(Cl)c2c(=O)n1N1CCN(Cc2ccc(F)cc2)CC1
2. C[C@H](Nc1nc(N)nc(N)c1C#N)c1nc2cccc(Cl)c2c(=O)n1C1C[C@H]2CC[C@@H](C1)N2C (stereo partly shown)

## Result
1: 23; 2: 82
